Reported surface tension liquid-gas values follow for various compounds
- experimental-parameters: 308.15 K, Pendant drop shape
The response must be a number in mN/m with no trailing unit.

Solved cases (3 shown):
CO = 21.01
CCCC[N+]1(C)CCCC1.O=S(=O)([N-]S(=O)(=O)C(F)(F)F)C(F)(F)F = 32.82
CCC[N+]1(C)CCCC1.O=S(=O)([N-]S(=O)(=O)C(F)(F)F)C(F)(F)F = 34.14

Ask: Please indicate surface tension liquid-gas recorded for `CC#N`
Result: 27.15

* * *

- experimental-parameters: 288.15 K, Pendant drop shape
# Lookup of reported surface tension liquid-gas keyed by entry
Express it in mN/m; write the number only.

Example compounds with recorded surface tension liquid-gas:
CCCC[N+]1(C)CCCC1.O=S(=O)([N-]S(=O)(=O)C(F)(F)F)C(F)(F)F = 33.71
CO = 22.88
CC#N = 29.53

Ask: Identify the reported surface tension liquid-gas for the following entry. `CCC[N+]1(C)CCCC1.O=S(=O)([N-]S(=O)(=O)C(F)(F)F)C(F)(F)F`
Result: 35.04

The measured values listed here are drawn from the NIST ThermoML archive (doi:10.1016/j.jct.2013.12.009).
